The measured values listed here are drawn from the supplement of paper PMC9170038.

- Tested on: MS2 coat protein
- experiment.description: apparent KD of MS2 coat protein, switch ON state; designed switch direction (-1 OFF switch, 1 ON switch): 1; higher = weaker reporter binding
- study.conditions: FMN input: 0 or 200 uM; Eterna round: R93 (includes R88 designs)
Could you label it t if measured apparent KD of MS2 coat protein is 90 nM or higher, and f otherwise?

Field: example entries. Status: answers known.
# chain, qualitative.label
measured = [
    ("GUCCAACAUGAGGAUCACCCAUGUAAGCGUGAUCAAGGAUAUGGGCGAAAGAAAACGCAACCAGAAGGUGAGCGCC [Aanmati]", "t"),
    ("AAAAAACAUGAGGAUCACCCAUGUCGAAAGACAUGAGGAUAUGUGUGGAAACCAUACUAUACAGAAGGCAUAAAAA [SS1 - 1009]", "f"),
    ("GCGAAUAUGGGUUAGGAUAUGCGCGCAUGUACAUGAGGAUCACCCAUGUUUACGGGCGCCUUUGAGCAGAAGGAGCUAAUCAACGC [SameState2Try2_Neo]", "f"),
    ("GAAAAACAUGAGGAUCACCCAUGUGAGAACAUGGGAGGAUAUACGAGGACGAAAGUCAAAGUAGAAGGCCUAAGAG [Garnet 86]", "t"),
]

Here is another sequence to look at.
In plain terms: is recorded apparent KD of MS2 coat protein at least 90 nM for AUAAAACAUGAGGAUCACCCAUGUAGAAAUAUGGGAGGAUAUACAAAGACGAAAGUCGAAGUAGAAGGCCUAAAAG [Mat - Same State 1 - Meechl mod - D117] ? f

====

- Tested on: MS2 coat protein
- experiment.description: apparent KD of MS2 coat protein; designed switch direction (-1 OFF switch, 1 ON switch): -1; higher = weaker reporter binding
- study.conditions: Eterna round: R95; input ligand: microRNA oligo, concentration not stated
The sequences listed here are annotated with their apparent KD of MS2 coat protein.
Write down the numeric answer in nM and omit the unit.

# annotated cases, reported apparent KD of MS2 coat protein shown
# chain, apparent KD of MS2 coat protein, nM
rows = [
    ("UUUAAUUUUUUUUUUUUACAAGCUUUUUGCUCGUCUUAUACAUGAGGAUCACCCAUGUGAAUGGAGGAUAAAUUAUC [JMF 30] (puzzle: Sensor v3, turn-off variant 2)", 33.1),
    ("CCUAGCCUAAAAUCACGCAAGCUUUUUGCUUGUCUUAAGACAUGAGGAUCACCCAUGUCCGGGCUGAACUUAUGGAA [Veorxe] (puzzle: Sensor v3, turn-off variant 2)", 23.2),
    ("CAAAAGCUAGGAUAUCGUAAACAAGACAUGAGGAUCACCCAUGUGUCCGUGGCUGACCUCCGAGAAGGAGCAAUAU [Bilate] (puzzle: Exclusion 5)", 16.8),
    ("GCCCAGCUAGGAUAUCGCACUGCAGACAUGAGGAUCACCCAUGUGAUGAGGUCUGAAUUCCGAGAAGGAGCAUGGA [Isedzaqu] (puzzle: Exclusion 5)", 22.1),
    ("AGUACUAACUCGAUAGUGUUAGUACAAUAAGCUUGUGAAACAUGAGGAUCACCCAUGUCCUCAUAAGCUCGUCUUAU [salish99_TOv2_r3_1004] (puzzle: Sensor v3, turn-off variant 2)", 726),
]

Recall the recorded apparent KD of MS2 coat protein for CUGAUGUUAGGAUAUCAGGCGCCCGCCACUAGCAGGGCGCAUGAGAAGGGACAUGAGGAUCACCCAUGUAGUAA [Anbionxe] (puzzle: Exclusion 4) with MS2 coat protein and state it. 27.3

Recall the recorded apparent KD of MS2 coat protein for GAGAAAUUAUAGGAUAUCGAAAGUAUAAUUUAACGAGAAGGAUGAACAUGAGGAUCACCCAUGUGGUAUCAUGG [JL-ex6-3.10] (puzzle: Exclusion 6) with MS2 coat protein and state it. 88.2

Recall the recorded apparent KD of MS2 coat protein for GGUACACAUGAGGAUCACCCAUGUCAGGAUAUCUGGAUACUCUUUAUUUUAGAUAUCCAGAGAAGGGACGUGCC [Ex1-3: 9Z] (puzzle: Exclusion 1) with MS2 coat protein and state it. 29.7

Recall the recorded apparent KD of MS2 coat protein for CGUGACUGAGGAUAUCUAUAUUAUCACAUGAGGAUCACCCAUGUCCAGCGAAAGCUGGAGGGAGAAGGCAGUCACG [Fiskers Ex 5 - 28] (puzzle: Exclusion 5) with MS2 coat protein and state it. 49.8

Recall the recorded apparent KD of MS2 coat protein for UCGACGUAAGGAUAUAUAAGGAACGAAGUAAGUUGUAGAAAAUAGAAGGUACAUGAGGAUCACCCAUGUUAAGA [JR_Exclu4_Sub061] (puzzle: Exclusion 4) with MS2 coat protein and state it. 19.6

Recall the recorded apparent KD of MS2 coat protein for GUUAAACAUGAGGAUCACCCAUGUAAGGAUAUGCUGCGGUCGCGAUGACGUGACUGCAGCAGAAGGUACAAAUG [Mat - Mod of JL D58] (puzzle: Exclusion 1) with MS2 coat protein and state it. 69.7

====

- Test system: MS2 coat protein
- experiment.description: apparent KD of MS2 coat protein; designed switch direction (-1 OFF switch, 1 ON switch): -1; higher = weaker reporter binding
- study.conditions: Eterna round: R95; input ligand: microRNA oligo, concentration not stated
endpoint: apparent KD of MS2 coat protein (nM)
Write down the numeric answer in nM and omit the unit.

# annotated cases, reported apparent KD of MS2 coat protein shown
# chain, endpoint, reading.unit, result.value
records = [
    ("CAAUUCCGAGGAUAUACAUGAGGAUCACCCAUGUCGGGCCUCAGCGUUUAGCGCCUCAGUAGAAGGCGGGUUUC [JL Riri mod 3] (puzzle: Exclusion 3)", "apparent KD of MS2 coat protein", "nM", 24.4),
    ("GCUGGGUCAGGAUAUACAAGAUCGAAAGAUCUGUGAAACGAACAUGAGGAUCACCCAUGUAGAAGGGACUGGGC [ChP 11-04-2015 #9] (puzzle: Exclusion 2)", "apparent KD of MS2 coat protein", "nM", 16.6),
    ("UAGAAUCGAGGAUAUACAUGAGGAUCACCCAUGUGUGGCCAUACGGUGUGGUCGUCAGGUAGAAGGCGAUUAUA [Exclusion 3 - Mod of Jieux's Gilly Gone Silly 23 v.2] (puzzle: Exclusion 3)", "apparent KD of MS2 coat protein", "nM", 28),
    ("GAAUGCAAGUAAAGAUCUUACAUGAGGAUCACCCAUGUGCUCGUCUUAUAAAGUACUAUCACGAAAGUGAUAGUACA [Mat - Sensor v3 - turn-off var 1 - Eli Mod - D90] (puzzle: Sensor v3, turn-off variant 1)", "apparent KD of MS2 coat protein", "nM", 84.1),
    ("GAUUAAUGCAAGGAUAUGCUAUUAUUUUAUUUUGCAGAAGGUGCAACAUGAGGAUCACCCAUGUUGGAGGGUAU [JR_E6_Sub026] (puzzle: Exclusion 6)", "apparent KD of MS2 coat protein", "nM", 17.4),
    ("GCUGGGUCAGGAUAUACAAGAUCGAAAGAUCAAAGAUUCGUACAUGAGGAUCACCCAUGUAGAAGGGACUGGGC [ChP 11-04-2015 #8] (puzzle: Exclusion 2)", "apparent KD of MS2 coat protein", "nM", 17.2),
    ("UCUAGACAUGAGGAUCACCCAUGUGAGGAUAUGAUGCGAAUAAAGAAAGAAGAAAGCAUCAGAAGGCACAUAUG [Fiskers Ex 1 - 3] (puzzle: Exclusion 1)", "apparent KD of MS2 coat protein", "nM", 116),
    ("AGUAACUAUCACGAAAGUGAUAGUUACACAAGCAGUGAAACAUGAGGAUCACCCAUGUCCUCAUUAGCUCGUCUUAU [Sensor 3 - 32] (puzzle: Sensor v3, turn-off variant 2)", "apparent KD of MS2 coat protein", "nM", 729),
]

Tell me the measured apparent KD of MS2 coat protein of CUGAGCAGACGGAAAUCCAACAUGAGGAUCACCCAUGUCUCAAAAGCUUUUUGCUCGUCUUAUCUUCCUCUGCUCUC [Cecelein] (puzzle: Sensor v3, turn-off variant 1) , please. 16.8

Tell me the measured apparent KD of MS2 coat protein of GAUUAUGCGAGCUUUAGGGACAUGAGGAUCACCCAUGUUCGUCUUAUUGAUCUAGGUACACUGACAUACCUAAAUCU [JMF 66] (puzzle: Sensor v3, turn-off variant 1) , please. 39.9

Tell me the measured apparent KD of MS2 coat protein of UAGGUGUGAGGAUAUGGUAAAGAUAAGAUGAUGAAAGAACUCCAGAAGGCACAUGAGGAUCACCCAUGUAGAAG [Mat - Exclusion 4 - Mod of JL - D30] (puzzle: Exclusion 4) , please. 22.8

Tell me the measured apparent KD of MS2 coat protein of UUUUAACAUGAGGAUCACCCAUGUGAGGAUAUCGAAAUUUAUAUUAAUAUUAUUAUUACGAGAAGGCACAUUUU [JMF 42] (puzzle: Exclusion 1) , please. 69.3

Tell me the measured apparent KD of MS2 coat protein of CUGAGGUAGCGGUCCUAUGACAUGAGGAUCACCCAUGUACCUUGCUACAAGCUUUUUGCUCGUCUUAUGAUUCUCGG [JL Atriat mod 8] (puzzle: Sensor v3, turn-off variant 1) , please. 123
